# System Tested: human IL-12 receptor (IL-12Rβ1 and IL-12Rβ2) on HEK-Blue IL-12 cells (human, UniProt P42701 24-662; Q99665 24-862)
# Sequence (Q99665 24-862, chain 2 of 2, other chains not shown): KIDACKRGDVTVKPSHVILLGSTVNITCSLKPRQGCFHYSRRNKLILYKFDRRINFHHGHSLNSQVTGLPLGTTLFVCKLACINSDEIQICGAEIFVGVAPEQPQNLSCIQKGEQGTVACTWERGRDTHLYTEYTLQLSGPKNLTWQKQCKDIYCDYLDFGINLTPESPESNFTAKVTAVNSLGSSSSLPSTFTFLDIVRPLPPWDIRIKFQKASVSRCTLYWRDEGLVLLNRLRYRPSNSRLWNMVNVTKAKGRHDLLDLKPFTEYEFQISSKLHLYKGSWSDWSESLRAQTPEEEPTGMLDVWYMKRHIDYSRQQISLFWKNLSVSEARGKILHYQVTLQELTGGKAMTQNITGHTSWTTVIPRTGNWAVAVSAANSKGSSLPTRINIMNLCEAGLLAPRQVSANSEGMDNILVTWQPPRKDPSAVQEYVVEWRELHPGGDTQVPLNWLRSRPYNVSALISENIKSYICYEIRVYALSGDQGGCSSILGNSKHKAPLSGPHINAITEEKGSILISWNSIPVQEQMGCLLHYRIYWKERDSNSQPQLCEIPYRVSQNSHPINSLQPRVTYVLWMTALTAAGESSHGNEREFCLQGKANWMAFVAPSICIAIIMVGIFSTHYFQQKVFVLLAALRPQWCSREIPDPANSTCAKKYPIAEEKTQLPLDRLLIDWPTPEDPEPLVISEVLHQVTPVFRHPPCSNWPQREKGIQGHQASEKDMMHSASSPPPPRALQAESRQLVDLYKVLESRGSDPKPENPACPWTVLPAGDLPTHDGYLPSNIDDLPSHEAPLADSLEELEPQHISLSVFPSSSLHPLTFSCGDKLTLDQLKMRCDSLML
# Assay Notes: cell-based or functional assay
True means recorded Max Absorbance is 0.4 or above; False means it is below 0.4.

Query string: Is it the case that DGL603 (bispecific antibody, V domains shown) V domain 1: EVQLVESGGGLVQPGGSLRLSCAASGFTFQNYAMSWLRKAPGEGLEWVSVINSGGGSTLYADSVKGRFTISRDNAKNTLYLQMHSLKSEDTAVYFCAKRRDDSTFGSLLYTHRGQGTQVTVEP V domain 2: QVQLVESGGGLVQPGGSLRLSCAASGFTFSNYAMSWVRQAPGKGLEWVSAINSDGTSTSYADSVKGQFTISRDNAKNTLYLQMNSLKPEDTAVYYCTKWEGDTDSDYKFKDYWGQGTQVTVEP has Max Absorbance reaching or exceeding 0.4?
Result string: False

Query string: Quick check: does DGL585 (bispecific antibody, V domains shown) V domain 1: QVQLVESGGGLVQAGGSLRLSCAASGRTFSSYVMGWFRQAPGQEREFVAAIMRNGIMTYYADSVKGRFTISRDNAKNTVYLQMNTLKPDDTAVYYCAAASRVGVSISQSSSYTSWGQGTQVTVEP V domain 2: QVQLVESGGGLVRPGGSLRLSCAASGFTFSSNGMHWFRQAPGKGLEWVSSIGSGGTSIYYADSVKGRFTISRDNAKNTLYLQMNSLKSDDTAVYYCSKEVTGATRGQGTQVTVEP have Max Absorbance greater than or equal to 0.4?
Result string: False

Query string: Could you tell me if the measured Max Absorbance of DGL570 (bispecific antibody, V domains shown, 233B1 x 64B2) V domain 1: QVQLVESGGGLVQAGGSLRLSCAASRSISSFNEMAWYRQAPGEQRELVATIVSTVGFTNYADSVKGRFTISRDNAKNTVYLQMNSLKAEDTAVYYCNARRISTDYWGQGTQVTVEP V domain 2: QVQLVESGGGLVQPGGSLRLSCAASGFTFSSKAMHWFRQAPGKGLEWVSSINSGGAITYYKDSVKGRFTVSRDNAKNILYLEMNSLKPEDTALYYCATDTDGRTRGQGTQVTVEP reaches 0.4 or more?
Result string: True

Query string: I'd appreciate it if you could say whether DGL525 (bispecific antibody, V domains shown) V domain 1: EVQLVESGGGLVQPGGSLRLFCAASRSIFNINIMGWYRQAPGKQREWLASITSGGSTFYADSVKDRFTISRDSVKNTVYLQMNSLKPEDTAAYYCNRYRSVPLNTVYPWGQGTLVTVEP V domain 2: QVQLVESGGGLVQAGGSLRLSCAASGRTFSSYAMGWFRQAPGKEREFVSAISWSGLSTYYVESVQGRFTISRDNAKNTVYLQMNSLKPEDTAVYYCAASRIYTNYVARSYEYDDWGQGTQVTVEP has Max Absorbance at least equal to 0.4.
Result string: False
